B1: KRT33B (parent)
chain: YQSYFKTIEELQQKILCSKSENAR

- Variants of: B1
- TEST METHOD NOTES: protein stability index of a GFP-peptide fusion (GPS, HEK-293T) (PSI 1-6); higher = more stable;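 also: lentivirally expressed fusions sorted by FACS into six bins by GFP to DsRed ratio, PSI derived from sequencing read proportions per bin multiplied by bin number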
- TEST PARAMETERS: c terminus: a fixed tail appended
READOUT: protein stability index

VARIANT CODE	protein stability index
S18K	1.86
K14R	2.57
A23N	2.24

Q. Tell me the measured protein stability index of Q13W , please.
A. 2.6

Q. Tell me the measured protein stability index of I15P , please.
A. 2.3
